# ASSAY SYSTEM: A1PI (Homo sapiens, UniProt P01009)
# Construct: Human plasma is currently the only approved source of therapeutic AlPI
# Sequence (P01009 25-418): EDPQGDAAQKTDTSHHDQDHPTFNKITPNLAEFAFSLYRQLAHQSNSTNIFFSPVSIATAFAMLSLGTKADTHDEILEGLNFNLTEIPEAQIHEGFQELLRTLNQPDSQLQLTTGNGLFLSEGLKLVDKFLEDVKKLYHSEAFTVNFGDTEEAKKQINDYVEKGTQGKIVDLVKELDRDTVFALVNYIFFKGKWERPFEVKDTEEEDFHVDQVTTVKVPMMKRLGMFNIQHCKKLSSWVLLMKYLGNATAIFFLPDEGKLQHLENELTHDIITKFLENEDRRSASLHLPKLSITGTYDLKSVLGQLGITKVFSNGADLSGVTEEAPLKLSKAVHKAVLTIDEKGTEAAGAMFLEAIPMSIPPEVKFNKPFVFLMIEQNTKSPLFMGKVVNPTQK
# EXPERIMENT DESCRIPTION: A1PI binding on peptide-resin column, injection of 1 mg A1PI in equilibration buffer
# ASSAY CONDITIONS: sequence order; 1 mg AlPI, 20° C.
# Procedure: Confirmatory binding assays were performed in a column chromatographic format on a microbore HPLC using individual peptide sequences synthesized directly onto the Toyopearl 650 M Chelate resin which had been modified with Totda followed by an alanine residue (A-Totda-Toyopearl), at a final substitution density of 0.1 mmole/g resin. The resin was packed into 0.4×5 cm columns (Thomson, Springfield, Va.) and tested on the Michrom HPLC system (Michrom BioResources, Auburn, Calif.). […]
Ends that are not written are not given here.
Recorded Percent AlPI Eluted by Fraction, 1M NaCl by entry
Answer with a number only, understood to be in %.

SUBSTANCE: RVLFIH: reversed sequence of VIFLVR with C-terminal His
ASSAY SYSTEM: A1PI (Homo sapiens, UniProt P01009)
UNITS: %
Percent AlPI Eluted by Fraction, 1M NaCl: 3

SUBSTANCE: VIFLVR
ASSAY SYSTEM: A1PI (Homo sapiens, UniProt P01009)
UNITS: %
Percent AlPI Eluted by Fraction, 1M NaCl: 7

SUBSTANCE: Ac-RVLFIV: N-terminal acetylated Ac-RVLFIV (listed under SEQ ID No:61)
ASSAY SYSTEM: A1PI (Homo sapiens, UniProt P01009)
UNITS: %
Percent AlPI Eluted by Fraction, 1M NaCl: 31

For RVLFIV: reversed sequence of VIFLVR the substance record lists Percent AlPI Eluted by Fraction, 1M NaCl as 3
